tested_target: STAT3 (Homo sapiens, UniProt P40763)
Sequence (P40763 whole entry): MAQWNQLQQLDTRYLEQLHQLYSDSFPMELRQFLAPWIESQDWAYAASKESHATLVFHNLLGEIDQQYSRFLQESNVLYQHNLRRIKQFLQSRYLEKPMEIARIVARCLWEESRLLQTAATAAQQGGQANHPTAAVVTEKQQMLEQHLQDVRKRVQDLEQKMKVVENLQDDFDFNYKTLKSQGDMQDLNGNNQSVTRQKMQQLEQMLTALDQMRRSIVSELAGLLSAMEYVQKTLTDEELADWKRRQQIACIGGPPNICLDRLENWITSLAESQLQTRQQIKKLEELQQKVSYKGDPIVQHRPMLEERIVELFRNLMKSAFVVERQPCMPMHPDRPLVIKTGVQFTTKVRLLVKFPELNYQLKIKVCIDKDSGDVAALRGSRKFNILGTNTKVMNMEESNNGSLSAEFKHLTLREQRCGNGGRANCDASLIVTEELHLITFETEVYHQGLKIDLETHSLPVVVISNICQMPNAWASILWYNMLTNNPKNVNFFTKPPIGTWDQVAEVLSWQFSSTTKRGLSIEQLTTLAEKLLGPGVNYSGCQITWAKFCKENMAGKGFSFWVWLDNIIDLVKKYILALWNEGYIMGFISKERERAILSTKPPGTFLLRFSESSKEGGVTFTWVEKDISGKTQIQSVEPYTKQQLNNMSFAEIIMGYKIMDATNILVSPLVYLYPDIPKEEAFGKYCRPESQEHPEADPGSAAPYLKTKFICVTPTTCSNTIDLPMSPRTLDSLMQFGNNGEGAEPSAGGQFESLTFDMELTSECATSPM
procedure_details: Quantitation of STAT3 degradation in A549 cells by Western blot
Format: cell-based
Parameters: expressed in transfected cells; host or cells: A549
condition_notes: read-out: A549 DC50, 24 hours, tested up to 30 μM or 10 μM
quantity_measured: DC50

compound: C/C(=C\C(=O)N[C@H]1CCc2cccc3c2N(C1=O)[C@H](C(=O)N[C@@H](CCC(N)=O)[C@@H](C)OCc1ccc(CCOCCCc2cccc4c2n(C)c(=O)n4C2CCC(=O)NC2=O)cc1)C3)c1ccc(C(F)(F)P(=O)(OCOC(=O)C(C)(C)C)OCOC(=O)C(C)(C)C)cc1 (stereo partly shown) [Compound I-9]
result: > 30 µM
//
compound: C/C(=C\C(=O)N[C@H]1CCc2cccc3c2N(C1=O)[C@H](C(=O)N[C@@H](CCC(N)=O)[C@@H](C)OCc1ccc(CCOCCOCCOCC(=O)N[C@H](C(=O)N2C[C@H](O)C[C@H]2C(=O)NCc2ccc(-c4scnc4C)cc2)C(C)(C)C)cc1)C3)c1ccc(C(F)(F)P(=O)(OCOC(=O)C(C)(C)C)OCOC(=O)C(C)(C)C)cc1 [Compound I-30]
result: > 10 µM
//
compound: C/C(=C\C(=O)N[C@H]1CCc2cccc3c2N(C1=O)[C@H](C(=O)NC(CCC(N)=O)[C@@H](C)OCc1ccc(CCCOCCOCCOCCOCC(=O)N[C@H](C(=O)N2C[C@H](O)C[C@H]2C(=O)NCc2ccc(-c4scnc4C)cc2)C(C)(C)C)cc1)C3)c1ccc(C(F)(F)P(=O)(OCOC(=O)C(C)(C)C)OCOC(=O)C(C)(C)C)cc1 (stereo partly shown) [Compound I-32]
result: > 10 µM
//
compound: C/C(=C\C(=O)N[C@H]1CCc2cccc3c2N(C1=O)[C@H](C(=O)N[C@@H](CCC(N)=O)[C@@H](C)OCc1ccc(CCCOCc2cccc4c2n(C)c(=O)n4C2CCC(=O)NC2=O)cc1)C3)c1ccc(C(F)(F)P(=O)(OCOC(=O)C(C)(C)C)OCOC(=O)C(C)(C)C)cc1 (stereo partly shown) [Compound I-5]
result: > 30 µM
//
compound: C/C(=C\C(=O)N[C@H]1CCc2cccc3c2N(C1=O)[C@H](C(=O)NC(CCC(N)=O)[C@@H](C)OCc1ccc(CCCOCCOCC(=O)N[C@H](C(=O)N2C[C@H](O)C[C@H]2C(=O)NCc2ccc(-c4scnc4C)cc2)C(C)(C)C)cc1)C3)c1ccc(C(F)(F)P(=O)(OCOC(=O)C(C)(C)C)OCOC(=O)C(C)(C)C)cc1 (stereo partly shown) [Compound I-37]
result: > 10 µM
//
compound: Cn1c(C(=O)N[C@H]2CN(C(=O)CCCCCC#Cc3cccc4c3CN(C3CCC(=O)NC3=O)C4=O)CC[C@H]3CC[C@@H](C(=O)N[C@@H](CCC(N)=O)C(=O)NC(c4ccccc4)c4ccccc4)N3C2=O)cc2cc(C(=O)P(=O)(O)O)ccc21 (stereo partly shown) [Compound I-102]
result: < 30 µM
//
compound: C/C(=C\C(=O)N[C@H]1CCc2cccc3c2N(C1=O)[C@H](C(=O)N[C@@H](CCC(N)=O)[C@@H](C)OCc1ccc(CC(=O)N[C@H](C(=O)N2C[C@H](O)C[C@H]2C(=O)NCc2ccc(-c4scnc4C)cc2)C(C)(C)C)cc1)C3)c1ccc(C(F)(F)P(=O)(OCOC(=O)C(C)(C)C)OCOC(=O)C(C)(C)C)cc1 [Compound I-4]
result: > 30 µM
//
compound: C[C@@H](OCc1ccc(CCCCCCc2ccc3c(c2)n(C)c(=O)n3C2CCC(=O)NC2=O)cc1)[C@H](CCC(N)=O)NC(=O)[C@@H]1Cc2cccc3c2N1C(=O)[C@@H](NC(=O)c1cc2cc(C(=O)P(=O)(O)O)ccc2[nH]1)CC3 (stereo partly shown) [Compound I-118]
result: > 30 µM
//
compound: C/C(=C\C(=O)N[C@H]1CCc2cccc3c2N(C1=O)[C@H](C(=O)N[C@@H](CCC(N)=O)[C@@H](C)OCc1ccc(CCCCC(=O)N[C@H](C(=O)N2C[C@H](O)C[C@H]2C(=O)NCc2ccc(-c4scnc4C)cc2)C(C)(C)C)cc1)C3)c1ccc(C(F)(F)P(=O)(O)O)cc1 [Compound I-1]
result: < 30 µM
//
compound: Cn1c(=O)n(C2CCC(=O)NC2=O)c2ccc(C#CCCCCC(=O)N3CC[C@H]4CC[C@@H](C(=O)N[C@@H](CCC(N)=O)C(=O)NC(c5ccccc5)c5ccccc5)N4C(=O)[C@@H](NC(=O)c4cc5cc(C(=O)P(=O)(O)O)ccc5[nH]4)C3)cc21 (stereo partly shown) [Compound I-99]
result: < 30 µM
//
compound: C/C(=C\C(=O)N[C@H]1CCc2cccc3c2N(C1=O)[C@H](C(=O)N[C@@H](CCC(N)=O)[C@@H](C)OCc1ccc(CCCCc2cccc4c2n(C)c(=O)n4C2CCC(=O)NC2=O)cc1)C3)c1ccc(C(F)(F)P(=O)(OCOC(=O)C(C)(C)C)OCOC(=O)C(C)(C)C)cc1 (stereo partly shown) [Compound I-3]
result: > 30 µM
//
compound: C/C(=C\C(=O)N[C@H]1CCc2cccc3c2N(C1=O)[C@H](C(=O)N[C@@H](CCC(N)=O)[C@@H](C)OCc1ccc(CCCCC(=O)N[C@H](C(=O)N2C[C@@H](O)C[C@H]2C(=O)NCc2ccc(-c4scnc4C)cc2)C(C)(C)C)cc1)C3)c1ccc(C(F)(F)P(=O)(OCOC(=O)C(C)(C)C)OCOC(=O)C(C)(C)C)cc1 [Compound I-2]
result: > 30 µM
//
compound: C/C(=C\C(=O)N[C@H]1CCc2cccc3c2N(C1=O)[C@H](C(=O)N[C@@H](CCC(N)=O)[C@@H](C)OCCCc1ccc2c(c1)n(C)c(=O)n2C1CCC(=O)NC1=O)C3)c1ccc(C(F)(F)P(=O)(O)O)cc1 (stereo partly shown) [Compound I-110]
result: > 30 µM
